experimentalTarget: T1, recombinant human CD40-Fc (human, UniProt P25942 21-193)
T1 construct: also called rh-CD40-Fc; CD40-hFc
T1 sequence (P25942 21-193): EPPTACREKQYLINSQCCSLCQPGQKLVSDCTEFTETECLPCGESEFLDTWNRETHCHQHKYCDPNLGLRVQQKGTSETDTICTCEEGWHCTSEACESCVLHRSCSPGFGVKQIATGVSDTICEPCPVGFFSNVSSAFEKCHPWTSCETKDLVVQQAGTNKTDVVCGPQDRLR
experimentalDetails: ELISA, CD40-Fc coated, VHH at 40 nM
measurementName: OD450

Use these answered entries as a reference point.
binder	measurementName	reportedValue
pgDD40-SZ-2 (VHH, not shown: small tags and cut ends) VHH: EVQLVESGGALAQPGGSLRLSCEASATIRSVNAMAWYRQGPGKPREMVANITSGDTTYYADSVKGRFTLSREGARNTVYLQMNSLKPEDTAVYQCNIHYTSTGGIRRDYWGRGTQVTVSS	OD450	1.72
pgDD40-SZ-7 (VHH, not shown: small tags and cut ends) VHH: QVQLVESGGALAQPGGSLRLSCEASATVRSVNAMAWYRQGPGKPRELVANITSGDTTYYADSVKGRFTLSREGARNTVYLQMNSLKPEDTAVYQCNIHYTSTGGIRRDYWGRGTQVTVSS	OD450	1.67
pgDD40-HZ-47 (VHH, not shown: small tags and cut ends) VHH: QVQLVESGGGLVQPGGSMRLSCSASGFSISVYWMSWVRRAPGKGLEWVSNLGADGVTAQYSDSVKGRFTIARDTAKNTLYLQMNSLKPEDTAVYYCNAMTGMNPAEEEAYWGQGTQVTVSS	OD450	0.066
pgDD40-SZ-1 (VHH, not shown: small tags and cut ends) VHH: QVQLVESGGALAQPGGSLRLSCEASTNVRSVNAMAWYRQGPGKPRELVANITSDDATYYADSVKGRFTLSREGARNTVYLQMNSLKPEDTAVYQCNVHYTSWGGIRRDYWGRGTQVTVSS	OD450	1.72
pgDD40-SZ-3 (VHH, not shown: small tags and cut ends) VHH: QVQLVESGGGLVQAGDSLRLSCTASGRAFNTYTMAWFRQAPGKERDFVAAISRDGTITHYADSVKGRFTTTRDNAKNTMYLQMSSLKYDDTAVYYCAARRVGAVPERESAYEHWGQGTQVTVSS	OD450	1.64
pgDD40-SZ-5 (VHH, not shown: small tags and cut ends) VHH: QVQLVESGGALAQPGGSLRLSCEASENVRSVNAMAWYRQGPGKPRELVANITSGDATYYADSVKGRFTLSREGARNTVYLQMNSLKPEDTAVYQCNVHYTSWGGIRRDYWGRGTQVTVSS	OD450	1.68

A: pgDD40-SZ-12 (VHH, not shown: small tags and cut ends) VHH: EVQLVESGGGLVQPGGSLKLSCAASGFAFSRYTMSWVRQAPGKGLEWVSGIDSGGGRTSYINSVKGRFTISRDNAKNTLYLQMNSLKPEDTAVYHCAQGGDSGSYYRTSWGQGTQVTVSS
B: pgDD40-HZ-15 (VHH, not shown: small tags and cut ends) VHH: EVQLVESGGGLVQAGGSLRLSCAASGFTFDDYAIGWFRQAPGKEREGVSCLSKNVGNTYYADSVKGRFTISSDNAKNTVYLQMNSLKPEDTAVYYCAKGSGYGCYDFPRYAVWGQGTQVTVSS
Which shows the larger OD450 value: A or B ? Mark your selection by writing its label.
A
